protocolDetails: Mouse PK of G7883, IP in MCT vehicle
Assay type: in vivo, female NSG mice
measurementParameters: female, NSG, plasma, 50 mg/kg, IP 50 mpk, MCT vehicle, mean
parameter: AUC(0-t) (µM·h)
# output: bare number, implied unit µM·h

The reported AUC(0-t) of the compound `Cc1nccnc1-c1nn2c(=O)cc(-c3ccc(C4CCCCC4)cc3)[nH]c2c1C(=O)N1CC(CF)C1` was 31.2
